test.method.notes: AUC (0 to infinity) in Sprague-Dawley rat at 5 mg/kg, iv by LC-MS/MS analysis
Type: ADME, organism-based
Set-up: dose 5 mg/kg, time infinity, route intravenous
test.context: Sprague-Dawley, in vivo
metric.name: AUC(0-inf) (ng·h/mL)
One number for each entry, in ng·h/mL.

Some solved cases for reference:
>  <compound>
C=CC(=O)Nc1cc(-n2c(=O)cc(C)c3cnc(Nc4ccc(N5CCN(C)CC5)cc4OC)nc32)cc(C(F)(F)F)c1.CS(=O)(=O)O

>  <AUC(0-inf) / ng·h/mL>
831

$$$$
>  <compound>
C=CC(=O)Nc1cc(-n2c(=O)cc(C)c3cnc(Nc4ccc(N5CC(C)N(C)C(C)C5)cc4OC)nc32)cc(C(F)(F)F)c1.CS(=O)(=O)O (stereo not given)

>  <AUC(0-inf) / ng·h/mL>
410

$$$$
>  <compound>
C=CC(=O)Nc1cccc(-n2c(=O)cc(C)c3cnc(Nc4ccc(N5CCN(C)C(C)C5)cc4OC)nc32)c1.CS(=O)(=O)O (stereo not given)

>  <AUC(0-inf) / ng·h/mL>
433

$$$$

Provide the reported AUC(0-inf) of each entry below, same order.
1. C=CC(=O)Nc1cccc(-n2c(=O)cc(C)c3cnc(Nc4ccc(N5CCN(C)CC5)cc4OC)nc32)c1.CS(=O)(=O)O
2. C=CC(=O)Nc1cccc(-n2c(=O)cc(C)c3cnc(Nc4ccc(N5CC(C)N(C)C(C)C5)cc4OC)nc32)c1.CS(=O)(=O)O (stereo not given)

450
622

* * *

test.method.notes: Oral bioavailability in Sprague-Dawley rat at 25 mg/kg administered via gavage by LC-MS/MS analysis
Assay type: ADME, organism-based
test.context: in vivo
Give YES when the value for bioavailability is at least 6%. Give NO when it is less.

Use these answered entries as a reference point.
>  <compound>
C=CC(=O)Nc1cccc(-n2c(=O)cc(C)c3cnc(Nc4ccc(N5CC(C)N(C)C(C)C5)cc4OC)nc32)c1.CS(=O)(=O)O (stereo unspecified)

>  <category.label>
YES

$$$$
>  <compound>
C=CC(=O)Nc1cc(-n2c(=O)cc(C)c3cnc(Nc4ccc(N5CCN(C)CC5)cc4OC)nc32)cc(C(F)(F)F)c1.CS(=O)(=O)O

>  <category.label>
YES

$$$$
>  <compound>
C=CC(=O)Nc1cccc(-n2c(=O)cc(C)c3cnc(Nc4ccc(N5CCN(C)CC5)cc4OC)nc32)c1.CS(=O)(=O)O

>  <category.label>
YES

$$$$
>  <compound>
C=CC(=O)Nc1cc(-n2c(=O)cc(C)c3cnc(Nc4ccc(N5CC(C)N(C)C(C)C5)cc4OC)nc32)cc(C(F)(F)F)c1.CS(=O)(=O)O (stereo unspecified)

>  <category.label>
NO

$$$$
>  <compound>
C=CC(=O)Nc1cc(-n2c(=O)cc(C)c3cnc(Nc4ccc(N5CCN(C)C(C)C5)cc4OC)nc32)cc(C(F)(F)F)c1.CS(=O)(=O)O (stereo unspecified)

>  <category.label>
NO

$$$$

Switching to the query record.
Does bioavailability meet or surpass 6% for C=CC(=O)Nc1cccc(-n2c(=O)cc(C)c3cnc(Nc4ccc(N5CCN(C)C(C)C5)cc4OC)nc32)c1.CS(=O)(=O)O (stereo unspecified) ?
YES

* * *

target.or.system: Epidermal growth factor receptor (Homo sapiens, UniProt P00533, L858R/T790M)
Sequence (P00533 25-1210 T790M/L858R limits assumed): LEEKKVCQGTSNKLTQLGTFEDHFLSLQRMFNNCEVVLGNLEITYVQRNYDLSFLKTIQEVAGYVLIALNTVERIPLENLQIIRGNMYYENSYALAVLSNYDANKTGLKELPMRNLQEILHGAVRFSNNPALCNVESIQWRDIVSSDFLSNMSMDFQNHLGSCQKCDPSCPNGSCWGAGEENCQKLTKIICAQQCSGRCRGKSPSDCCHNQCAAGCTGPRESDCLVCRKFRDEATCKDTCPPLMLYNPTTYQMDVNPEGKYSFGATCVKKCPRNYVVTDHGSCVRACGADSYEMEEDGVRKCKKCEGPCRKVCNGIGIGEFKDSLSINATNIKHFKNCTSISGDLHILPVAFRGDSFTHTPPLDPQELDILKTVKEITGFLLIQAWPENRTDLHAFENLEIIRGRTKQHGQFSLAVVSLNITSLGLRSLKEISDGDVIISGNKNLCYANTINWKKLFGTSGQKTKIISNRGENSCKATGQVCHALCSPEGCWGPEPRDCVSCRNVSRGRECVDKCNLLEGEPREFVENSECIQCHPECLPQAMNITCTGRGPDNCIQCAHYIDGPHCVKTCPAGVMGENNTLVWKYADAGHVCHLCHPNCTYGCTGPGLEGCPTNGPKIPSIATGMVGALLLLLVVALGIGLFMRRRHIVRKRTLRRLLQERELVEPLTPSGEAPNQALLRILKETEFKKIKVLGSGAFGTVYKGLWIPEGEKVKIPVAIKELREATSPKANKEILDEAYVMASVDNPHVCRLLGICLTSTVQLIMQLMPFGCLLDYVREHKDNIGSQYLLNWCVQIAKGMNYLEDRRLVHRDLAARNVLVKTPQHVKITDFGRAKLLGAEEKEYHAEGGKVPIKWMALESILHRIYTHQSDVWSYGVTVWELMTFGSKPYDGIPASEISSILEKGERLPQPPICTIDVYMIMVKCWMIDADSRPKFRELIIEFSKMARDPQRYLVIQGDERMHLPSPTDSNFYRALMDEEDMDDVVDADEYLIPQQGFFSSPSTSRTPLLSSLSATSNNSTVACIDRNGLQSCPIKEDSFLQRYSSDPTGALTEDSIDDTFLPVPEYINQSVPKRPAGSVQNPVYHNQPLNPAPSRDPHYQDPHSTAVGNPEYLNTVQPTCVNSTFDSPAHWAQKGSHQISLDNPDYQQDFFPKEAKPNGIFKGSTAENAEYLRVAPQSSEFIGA
test.method.notes: Inhibition of N-terminal 6His/TEV protease cleavage site-tagged human EGFR L858R/T790M double mutant (696 to 1022 residues) using poly (Glu,Tyr) 4:1 as substrate after 1 hr by ELISA
Record form. Attribute: IC50. Fill in for each entry.
Answers are plain numbers, in nM.

Some solved cases for reference:
>  <compound>
C=CC(=O)Nc1cccc(-n2c(=O)cc(C)c3cnc(Nc4cnn(CCN(C)C)c4)nc32)c1

>  <test.value>
4.2

$$$$
>  <compound>
C=CC(=O)Nc1cc(Br)cc(-n2c(=O)cc(C)c3cnc(Nc4ccc(N5CCN(C)CC5)cc4OC)nc32)c1

>  <test.value>
1.8

$$$$
>  <compound>
C=CC(=O)Nc1cccc(-n2c(=O)cc(C)c3cnc(Nc4ccc(N5CCN(C)C(C)C5)cc4OC)nc32)c1 (stereo not drawn)

>  <test.value>
1.2

$$$$
>  <compound>
C=CC(=O)Nc1cc(-n2c(=O)cc(C)c3cnc(Nc4ccc(N5CCN(C)C(C)C5)cc4OC)nc32)cc(C(F)(F)F)c1 (stereo not drawn)

>  <test.value>
1.6

$$$$
>  <compound>
C=CC(=O)Nc1cc(-n2c(=O)cc(C)c3cnc(Nc4ccc(N5CCN(C)CC5)cc4OC)nc32)ccc1C

>  <test.value>
2.3

$$$$
>  <compound>
C=CC(=O)Nc1cc(C)cc(-n2c(=O)cc(C)c3cnc(Nc4ccc(N5CCN(C)CC5)cc4OC)nc32)c1

>  <test.value>
1.8

$$$$

Provide the reported IC50 of each entry below, same order.
1. C=CC(=O)Nc1cc(F)cc(-n2c(=O)cc(C)c3cnc(Nc4ccc(N5CCN(C)CC5)cc4OC)nc32)c1
2. C=CC(=O)Nc1cccc(-n2c(=O)cc(C)c3cnc(Nc4ccc(N5CCN(C)CC5)nc4)nc32)c1

1. 0.8
2. 1.4

Provide the reported IC50 of each entry below, same order.
1. C=CC(=O)Nc1cccc(-n2c(=O)cc(C)c3cnc(Nc4nc5c(s4)CN(C)CC5)nc32)c1
2. C=CC(=O)Nc1cc(-n2c(=O)cc(C)c3cnc(Nc4ccc(N5CCN(C)CC5)cc4OC)nc32)cc(C(F)(F)F)c1
3. C=CC(=O)Nc1cc(CC)cc(-n2c(=O)cc(C)c3cnc(Nc4ccc(N5CCN(C)CC5)cc4OC)nc32)c1
4. C=CC(=O)Nc1cccc(-n2c(=O)cc(C)c3cnc(Nc4cnn(C5CCN(C)CC5)c4)nc32)c1
5. C=CC(=O)Nc1cc(C(C)C)cc(-n2c(=O)cc(C)c3cnc(Nc4ccc(N5CCN(C)CC5)cc4OC)nc32)c1
6. C=CC(=O)N1CCC(Cn2c(=O)cc(C)c3cnc(Nc4ccc(N5CCN(C)CC5)cc4OC)nc32)C1 (racemic)

1. 2.5
2. 2
3. 3.4
4. 1.8
5. 2.4
6. 63.8

Data provenance: ChEMBL document CHEMBL4000215
